targetDesc: CK1α (Homo sapiens, UniProt P48729+Q96SW2)
Sequence (P48729 whole entry): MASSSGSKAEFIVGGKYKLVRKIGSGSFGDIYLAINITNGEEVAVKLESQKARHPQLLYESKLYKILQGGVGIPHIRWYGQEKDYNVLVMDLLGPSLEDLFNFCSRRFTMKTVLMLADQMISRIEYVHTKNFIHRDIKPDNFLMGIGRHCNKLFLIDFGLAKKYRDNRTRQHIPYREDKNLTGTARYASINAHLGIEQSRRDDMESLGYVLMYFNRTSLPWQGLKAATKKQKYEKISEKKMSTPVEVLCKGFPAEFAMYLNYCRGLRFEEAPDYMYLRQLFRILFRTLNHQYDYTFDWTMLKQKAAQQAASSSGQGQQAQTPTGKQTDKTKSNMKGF
Sequence (Q96SW2 whole entry): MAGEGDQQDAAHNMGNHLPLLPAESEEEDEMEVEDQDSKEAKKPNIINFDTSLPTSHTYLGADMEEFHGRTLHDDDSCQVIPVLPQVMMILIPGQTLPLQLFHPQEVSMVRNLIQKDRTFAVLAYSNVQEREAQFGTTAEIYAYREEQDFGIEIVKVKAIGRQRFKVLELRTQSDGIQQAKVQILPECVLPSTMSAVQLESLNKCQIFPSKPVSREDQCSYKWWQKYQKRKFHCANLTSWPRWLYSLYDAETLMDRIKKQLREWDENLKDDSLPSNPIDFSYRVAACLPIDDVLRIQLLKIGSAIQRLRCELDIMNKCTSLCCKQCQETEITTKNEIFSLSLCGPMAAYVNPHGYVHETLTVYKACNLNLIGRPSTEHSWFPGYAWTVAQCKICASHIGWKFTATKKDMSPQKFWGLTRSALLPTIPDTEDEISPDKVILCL
Sequence (Q16531 whole entry partner): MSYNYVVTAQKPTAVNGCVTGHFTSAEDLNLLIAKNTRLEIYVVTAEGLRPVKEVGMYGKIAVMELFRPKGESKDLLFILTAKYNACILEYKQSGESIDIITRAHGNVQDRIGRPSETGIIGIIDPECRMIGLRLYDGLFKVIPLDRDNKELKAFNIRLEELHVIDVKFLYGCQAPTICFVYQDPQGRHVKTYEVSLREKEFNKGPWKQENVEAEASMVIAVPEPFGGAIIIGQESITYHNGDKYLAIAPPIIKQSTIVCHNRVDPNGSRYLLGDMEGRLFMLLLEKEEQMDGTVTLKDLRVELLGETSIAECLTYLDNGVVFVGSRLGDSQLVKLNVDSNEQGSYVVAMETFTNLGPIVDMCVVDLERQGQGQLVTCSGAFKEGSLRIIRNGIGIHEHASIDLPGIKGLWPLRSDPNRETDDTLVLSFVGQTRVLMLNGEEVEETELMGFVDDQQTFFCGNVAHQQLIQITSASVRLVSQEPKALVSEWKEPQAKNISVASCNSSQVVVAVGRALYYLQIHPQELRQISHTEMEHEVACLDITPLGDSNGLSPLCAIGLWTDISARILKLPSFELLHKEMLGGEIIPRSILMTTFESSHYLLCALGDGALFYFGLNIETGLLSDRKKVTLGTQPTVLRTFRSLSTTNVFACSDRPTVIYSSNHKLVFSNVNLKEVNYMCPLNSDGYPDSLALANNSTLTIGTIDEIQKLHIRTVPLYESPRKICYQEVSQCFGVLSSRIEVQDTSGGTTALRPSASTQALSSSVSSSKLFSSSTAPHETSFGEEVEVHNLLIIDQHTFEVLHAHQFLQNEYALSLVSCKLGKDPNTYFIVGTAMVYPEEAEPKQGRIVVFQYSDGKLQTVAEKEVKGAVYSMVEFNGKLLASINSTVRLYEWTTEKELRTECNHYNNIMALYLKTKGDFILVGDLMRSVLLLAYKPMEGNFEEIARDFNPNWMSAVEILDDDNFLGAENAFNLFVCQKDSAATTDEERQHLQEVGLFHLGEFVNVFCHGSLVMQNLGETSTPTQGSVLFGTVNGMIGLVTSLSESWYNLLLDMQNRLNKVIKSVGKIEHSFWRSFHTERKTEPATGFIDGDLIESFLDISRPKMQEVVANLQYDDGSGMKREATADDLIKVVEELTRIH
assayName: ePL degradation assay, MDS-L/CK1α ePL OE_GSPT1G575N OE cells
recordedConditions: degradation, 4 hr incubation, top conc 10 uM, N ≥ 3, read-out: CK1a EC50
pEC50: −log10 of the molar value.
quantityKind: pEC50

Looking up O=C1CCC(N2C(=O)c3cccc([C@H]4C[C@@]4(C(=O)OCC(Cl)(Cl)Cl)c4ccc(Br)cc4)c3C2=O)C(=O)N1 (stereo partly drawn) [Compound 14b] , I found its pEC50 recorded as < 5.00

Looking up O=C1CCC(N2Cc3ccc(C4=C[C@]4(C(=O)OCC(Cl)(Cl)Cl)c4ccc(Br)cc4)cc3C2=O)C(=O)N1 (stereo partly drawn) [Compound 23a] , I found its pEC50 recorded as < 5.00

Looking up O=C1CCC(N2Cc3cccc([C@H]4C[C@@]4(C(=O)OCC(Cl)(Cl)Cl)c4ccc(Br)cc4)c3C2=O)C(=O)N1 (stereo partly drawn) [Compound 18b] , I found its pEC50 recorded as < 5.00

Taken from paper PMC11403733.
